Molecular target: CB1 (Rattus norvegicus)
Sequence (P20272 whole entry): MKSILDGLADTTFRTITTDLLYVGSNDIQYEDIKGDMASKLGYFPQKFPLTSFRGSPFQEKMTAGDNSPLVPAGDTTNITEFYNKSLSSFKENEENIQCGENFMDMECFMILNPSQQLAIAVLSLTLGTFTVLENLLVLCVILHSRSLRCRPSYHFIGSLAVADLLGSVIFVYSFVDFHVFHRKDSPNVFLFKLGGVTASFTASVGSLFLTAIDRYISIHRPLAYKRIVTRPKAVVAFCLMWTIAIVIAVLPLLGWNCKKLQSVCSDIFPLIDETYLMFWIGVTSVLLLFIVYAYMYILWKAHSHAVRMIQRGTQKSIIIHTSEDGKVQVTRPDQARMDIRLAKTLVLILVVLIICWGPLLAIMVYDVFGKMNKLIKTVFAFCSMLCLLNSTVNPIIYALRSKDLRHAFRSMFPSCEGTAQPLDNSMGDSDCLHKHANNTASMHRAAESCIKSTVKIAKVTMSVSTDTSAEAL
Assay: Rat CB1 receptor binding using brain membrane, [3H]SR141716A displacement (Protocol I)
Set-up: CB1 receptor present in a rat brain membrane preparation; from tissue; host or cells: rat brain membrane
Conditions: rat brain membrane, [3H]SR141716A displacement
The label is True for % Displacement Protocol I below 50% and False for % Displacement Protocol I equal to or exceeding 50%.

O=C(NC1CCCCC1)c1nn(-c2ccccc2Cl)c2c1C1CC3CC(C1)CC2C3 : True

Consider the molecule O=C(NCc1ccccc1)c1nn(-c2ccccc2)c2c1C1CC3CC(C1)CC2C3 . Is its % Displacement Protocol I strictly less than 50%?
True

====

observable: melting point

Completed entries (count: 3):
O=C(NC1CCCCC1)c1nn(-c2ccc(F)cc2)c2c1C1CCC2C1 (stereo not shown) : 127 °C
O=C(NNc1ccc(F)cc1F)c1nn(-c2ccc(Cl)cc2)c2c1C1CCC2C1 (stereo not shown) : 118 to 120 °C
O=C(NNc1ccc(Cl)cc1Cl)c1nn(-c2ccc(Cl)cc2Cl)c2c1C1CC3CC(C1)CC2C3 : 153 to 156 °C

Continue with the next compound.
May I ask what melting point has been recorded for O=C(NCc1ccc(Cl)cc1)c1nn(-c2ccc(F)cc2F)c2c1C1CCC2C1 (stereo not shown) ?
121 to 125 °C

====

The entries below come with measured melting point values attached.

O=C(NC12CC3CC(CC(C3)C1)C2)c1nn(-c2ccc(Cl)cc2Cl)c2c1C1CCC2c2ccccc21 (stereo not drawn) [Example 506] : 120 to 124 °C
O=C(NCC1CCCO1)c1nn(-c2ccc(F)cc2F)c2c1C1CCC2C1 (stereo not drawn) [Example 322] : 91 to 93 °C
O=C(NCc1ccc(Cl)cc1Cl)c1nn(-c2ccc(F)cc2F)c2c1C1CCC2C1 (stereo not drawn) [Example 307] : 105 to 108 °C
O=C(NNc1ccc(F)cc1F)c1nn(-c2ccc(Cl)cc2Cl)c2c1C1CCC2C1 (stereo not drawn) [Example 265] : 157 to 160 °C
O=C(NCc1ccc(Br)cc1)c1nn(-c2ccc(Cl)cc2)c2c1C1CCC2C1 (stereo not drawn) [Example 225] : 181 to 183 °C
CCCCCNC(=O)c1nn(-c2ccc(F)cc2F)c2c1C1CCC2C1 (stereo not drawn) [Example 306] : 75 to 78 °C
COc1ccc(-n2nc(C(=O)NN3CCCCC3)c3c2C2CC4CC(CC3C4)C2)cc1 [Example 163] : 156 °C
C[C@@H](NC(=O)c1nn(-c2ccc(F)cc2F)c2c1C1CC3CC(C1)CC2C3)c1ccccc1 [Example 147] : 123 to 128 °C

Which melting point is listed for CC(C)(NC(=O)c1nn(-c2ccc(F)cc2F)c2c1C1CCC2c2ccccc21)c1ccccc1 (stereo not drawn) [Example 509] ?
175 to 178 °C

Look up melting point for this compound: O=C(NN1CCCCC1)c1nn(-c2ccc(Cl)cc2Cl)c2c1C1CCC2c2ccccc21 (stereo not drawn) [Example 502]
164 to 166 °C

Any idea what melting point was measured for O=C(NNc1cccc(F)c1)c1nn(-c2ccc(Cl)cc2)c2c1C1CCC2C1 (stereo not drawn) [Example 233] ?
199 °C

Given the compound O=C(NN1CCCCC1)c1nn(-c2ccc(F)cc2F)c2c1C1CCC2C1 (stereo not drawn) [Example 289] , what is its reported melting point?
143 °C

Please give the measured melting point for this compound: COc1ccccc1NC(=O)c1nn(-c2ccc(Cl)cc2)c2c1C1CCC2C1 (stereo not drawn) [Example 218]
149 to 151 °C

Please give the measured melting point for this compound: O=C(NN(c1ccc(Cl)cc1Cl)C1CCCCC1)c1nn(-c2ccc(Cl)cc2)c2c1C1CC3CC(C1)CC2C3 [Example 129]
95 to 96 °C

Recorded melting point for O=C(NNc1ccc(Cl)cc1)c1nn(-c2ccc(Cl)cc2Cl)c2c1C1CCC2C1 (stereo not drawn) [Example 259] , please?
141 to 144 °C

Entry O=C(NNc1ccc(Cl)cc1Cl)c1nn(-c2ccccc2)c2c1C1CC3CC(C1)CC2C3 [Example 167] has what melting point?
166 to 170 °C

Quick one: melting point for O=C(NN(C1CCCCC1)C1CCCCC1)c1nn(-c2ccc(Cl)cc2Cl)c2c1C1CCC2C1 (stereo not drawn) [Example 239] ?
127 to 130 °C

Sample O=C(NCC1CC1)c1nn(-c2ccc(F)cc2F)c2c1C1CCC2C1 (stereo not drawn) [Example 314] — what was its melting point?
113 to 115 °C

====

Target: hCB1 (Homo sapiens)
Sequence (P21554 whole entry): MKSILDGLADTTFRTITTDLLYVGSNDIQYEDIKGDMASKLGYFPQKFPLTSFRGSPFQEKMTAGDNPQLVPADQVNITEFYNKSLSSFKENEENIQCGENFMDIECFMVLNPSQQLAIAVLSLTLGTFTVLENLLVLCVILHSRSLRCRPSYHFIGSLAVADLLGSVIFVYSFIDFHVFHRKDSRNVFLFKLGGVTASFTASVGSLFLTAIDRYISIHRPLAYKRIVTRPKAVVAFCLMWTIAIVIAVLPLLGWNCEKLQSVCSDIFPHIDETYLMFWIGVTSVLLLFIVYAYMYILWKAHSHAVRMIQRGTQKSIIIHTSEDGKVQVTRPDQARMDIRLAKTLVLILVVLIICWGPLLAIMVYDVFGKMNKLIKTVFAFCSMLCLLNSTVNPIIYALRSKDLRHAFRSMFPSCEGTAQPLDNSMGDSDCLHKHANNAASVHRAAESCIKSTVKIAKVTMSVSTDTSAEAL
Test: In vitro binding assay using hCB1-CHO membranes, [3H]-CP-55,940 displacement (Protocol II)
Parameters: expressed in transfected cells; host or cells: CHO (hCB1-CHO, generated in-house)
yes means recorded % Displacement Protocol II is 20% or above; no means it is below 20%.

COC(=O)[C@H](NC(=O)c1nn(-c2ccc(F)cc2F)c2c1C1CC3CC(C1)CC2C3)c1ccccc1 [Example 154] : yes
O=C(NCc1ccccc1)c1nn(-c2ccc(Cl)cc2Cl)c2c1C1CC3CC(C1)CC2C3 [Example 179] : yes
O=C(NC1CCCCC1)c1nn(-c2ccccc2Cl)c2c1C1CC3CC(C1)CC2C3 [Example 183] : no
CC(C)(NC(=O)c1nn(-c2ccc(F)cc2F)c2c1C1CCC2(C)C1(C)C)c1ccccc1 (centres unmarked) [Example 407] : yes
CC(C)(C)NC(=O)c1nn(-c2ccc(F)cc2F)c2c1C1CCC2(C)C1(C)C (centres unmarked) [Example 408] : yes
O=C(NCCc1ccccc1)c1nn(-c2ccc(Cl)cc2)c2c1C1CC3CC(C1)CC2C3 [Example 136] : no

Entry CN(NC(=O)c1nn(-c2ccc(Cl)cc2)c2c1C1CC3CC(C1)CC2C3)c1ccc(Cl)cc1Cl.Cl [Example 128] : is its % Displacement Protocol II no less than 20%?
yes

Check the entry O=C(NCc1ccc(C(F)(F)F)cc1)c1nn(-c2ccc(Cl)cc2)c2c1C1CCC2C1 (centres unmarked) [Example 227] : does % Displacement Protocol II equal or exceed 20%?
no

====

Biological target: CB1 (Rattus norvegicus)
Assay: GTPγS binding assay, CB1 functional assay in rat cerebellar membrane (Protocol VIII)
Type: biochemical
Design: 10 μg rat cerebellum membrane; from tissue; host or cells: rat cerebellum membrane, prepared in-house
Details: GTPγS binding, tested at 1 uM in presence of 1 μM WIN 55,212-2; read-out: % Inhibition of WIN-55212-2 induced stimulation
Reported inhibition at 1 µM values follow for various compounds
# number only, unit % dropped from output

Record excerpt, results attached:
O=C(NNc1ccccc1)c1nn(-c2ccc(Cl)cc2Cl)c2c1C1CC3CC(C1)CC2C3 : 99.5
O=C(NNc1ccc(Cl)cc1Cl)c1nn(-c2ccc(Cl)cc2Cl)c2c1C1CCC2C1 (centres unmarked) : 78.8
O=C(NC1CCCC1)c1nn(-c2ccc(Cl)cc2)c2c1C1CCC2C1 (centres unmarked) : 97.4
O=C(NNc1ccccc1)c1nn(-c2ccc(Cl)cc2Cl)c2c1C1CCC2C1 (centres unmarked) : 69.7
O=C(NNc1ccccc1Cl)c1nn(-c2ccc(Cl)cc2Cl)c2c1C1CCC2C1 (centres unmarked) : 48.3
O=C(NCc1ccccc1Cl)c1nn(-c2ccc(Cl)cc2)c2c1C1CCC2C1 (centres unmarked) : 95.7
O=C(NCc1ccccc1Br)c1nn(-c2ccc(Cl)cc2)c2c1C1CCC2C1 (centres unmarked) : 78.1
O=C(NCc1ccccc1Cl)c1nn(-c2ccc(Cl)cc2)c2c1C1CC3CC(C1)CC2C3 : 101
O=C(NCc1ccccc1)c1nn(-c2ccc(Cl)cc2Cl)c2c1C1CCC2c2ccccc21 (centres unmarked) : 40.1
O=C(NN1CCCCC1)c1nn(-c2ccc(F)cc2F)c2c1C1CC3CC(C1)CC2C3 : 45

Identify the measured inhibition at 1 µM of O=C(NNc1ccc(Cl)cc1Cl)c1n[nH]c2c1C1(c3ccc(Cl)cc3)CCC2C1 (centres unmarked) for CB1 (Rattus norvegicus).
99.4

Tell me reported inhibition at 1 µM for O=C(NN(c1ccccc1)c1ccccc1)c1nn(-c2ccc(Cl)cc2)c2c1C1CC3CC(C1)CC2C3 , tested with CB1 (Rattus norvegicus).
76

====

Target: UniProt P34972
Sequence (P34972 whole entry): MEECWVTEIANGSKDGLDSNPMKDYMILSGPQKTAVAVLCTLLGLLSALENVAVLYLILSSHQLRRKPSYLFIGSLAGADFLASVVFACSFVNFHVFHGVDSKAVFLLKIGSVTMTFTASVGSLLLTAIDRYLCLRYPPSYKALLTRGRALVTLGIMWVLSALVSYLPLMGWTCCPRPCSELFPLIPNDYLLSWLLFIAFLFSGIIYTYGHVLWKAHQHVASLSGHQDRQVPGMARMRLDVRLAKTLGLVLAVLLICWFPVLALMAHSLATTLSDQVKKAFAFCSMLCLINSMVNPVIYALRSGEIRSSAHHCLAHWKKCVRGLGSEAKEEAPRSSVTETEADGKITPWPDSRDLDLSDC
Assay: In vitro binding assay using hCB2-CHO membranes, [3H]-CP-55,940 displacement (Protocol IV)
Design: expressed in transfected cells; host or cells: CHO (hCB2-CHO, generated in-house)
Conditions: 1 h; hCB2-CHO membranes, [3H]-CP-55,940 displacement; read-out: % Displacement Protocol IV
Assign class by inhibition at 0.3 µM: not lower than 40% means yes; lower than 40% means no.

Observe how each entry below is paired with its result.
O=C(NNc1ccccc1)c1nn(-c2ccccc2Cl)c2c1C1CCC2C1 (centres unmarked) [Example 208] : no
O=C(Nc1ccccc1)c1nn(-c2ccc(Cl)cc2)c2c1C1CCC2C1 (centres unmarked) [Example 214] : yes
O=C(NNc1ccccc1F)c1nn(-c2ccc(F)cc2F)c2c1C1CCC2C1 (centres unmarked) [Example 288] : yes
O=C(NNc1ccc(Cl)cc1Cl)c1nn(-c2ccc(Cl)cc2Cl)c2c1C1CC3CC(C1)CC2C3 [Example 175] : no

Consider now this further molecule.
Exam item: decide whether the reported inhibition at 0.3 µM for O=C(NN1CCCCC1)c1nn(-c2ccccc2Br)c2c1C1CCC2C1 (centres unmarked) [Example 270] is at least 40%.
no
